Answer each item with its documented Km.
# Tested on: Lip5-DM (recombinant Lip5, CALip5)
# Construct: putative 14-residue signal peptide removed; secreted from Pichia pastoris X-33 (pGAPZalphaA), about 50 kDa
# Test summary: p-nitrophenol release at […] nm, Lineweaver-Burk
# Format: biochemical, Candida albicans
# Measurement parameters: 100 mM Na2HPO4-NaH2PO4 pH 6.0; kinetics run at 5, 15 and 25 °C, temperature of table values not stated
The figure you give is taken to be in µM; do not add the unit.

I am curious: what Km value has been reported for CCCCCCCCCCCC(=O)Oc1ccc([N+](=O)[O-])cc1 [C12, p-NP-laurate] ?
500

For CCCCCCCCCCCCCCCC(=O)Oc1ccc([N+](=O)[O-])cc1 [C16, p-NP-palmitate] then?
360

For CCCCCCCC(=O)Oc1ccc([N+](=O)[O-])cc1 [C8, p-NP-caprylate] then?
270

For CCCC(=O)Oc1ccc([N+](=O)[O-])cc1 [C4, p-NP-butyrate] then?
410
